experiment.description: Phase 1a single ascending dose study: UV-4 plasma concentrations and PK parameters (LC-MS/MS, noncompartmental)
Assay type: in vivo
test.settings: both sexes, human, plasma, po, 1000 mg, 1000 mg single oral dose; Ar Mean; read-out: AUC(0-inf)
Protocol: UV-4 ((2R,3R,4R,5S)-2-(hydroxymethyl)-1-(9-methoxynonyl)piperidine-3,4,5-triol, also called N-(9’-methoxynonyl)-1-deoxynojirimycin, or MON-DNJ) hydrochloride was evaluated in a first-in-human, randomized, single-center, double-blind, placebo-controlled, parallel group, single ascending dose Phase 1a clinical trial in healthy subjects (Figs 1 and 2, ClinicalTrials.gov Identifier NCT02061358 https://clinicaltrials.gov/ct2/show/NCT02061358). […]
assay.metric: AUC(0-inf) (ng·h/mL)

compound | measurement
COCCCCCCCCCN1C[C@H](O)[C@@H](O)[C@H](O)[C@H]1CO [UV-4B] | 43100
